Assay: Components of the Cytosolic LPS Sensing Pathway: Gene Identification via Genome-wide siRNA Screen
Conditions: RAW264.7 macrophages, IL-1a HTRF, actives lie on both sides, screened at 100 nM (by protocol), cells primed 5 h with Pam3CSK4 first
The campaign covered roughly 53,000 sequences. About 3,700 (7%) were called active. Many of the other results were omitted from the sample, so actives are more common in it than they were.
Strictly below 1 in z-score: rule met. Otherwise: rule not met.

Strictly below 1: is that where z-score of GGGAAUCAUUAAAUAGGAUTT against Arhgap26 sits?
rule met

Strictly below 1: is that where z-score of GGUUAUUUCUGAAAUGUGCTT against Fbxl4 sits?
rule met

Strictly below 1: is that where z-score of GGGACUCAACCUAUAUCUUTT against Gnpat sits?
rule met

Strictly below 1: is that where z-score of GGGAUACCAUCUUUAUGGCTT against Vwa3b sits?
rule met

Strictly below 1: is that where z-score of GGAGCACAGAAAACACAAGTT against Ncan sits?
rule not met

Strictly below 1: is that where z-score of CCGGUUCACUGCUUGACCUTT against Wbp1 sits?
rule met

Strictly below 1: is that where z-score of GGCCAAAGCUGAUAUGACATT against Ankef1 sits?
rule not met

Strictly below 1: is that where z-score of CCAGCGAUCUUCCCAUUCUTT against Ccr8 sits?
rule met

Strictly below 1: is that where z-score of GGACGUGGGCUCUCUAGAUTT against S100a13 sits?
rule not met

Strictly below 1: is that where z-score of CGACCAUACGAAUGCGGCATT against Zfp865 sits?
rule met

Strictly below 1: is that where z-score of GGGAACCAGCCAGUUCAAGTT against Ap1g2 sits?
rule not met

Strictly below 1: is that where z-score of GGUGAUAUAGCUAUUUUCUTT against Fbxw11 sits?
rule met

Strictly below 1: is that where z-score of GUCCGUCUCGGAGAAAUGUTT against Ccdc106 sits?
rule met

Strictly below 1: is that where z-score of GGCUGUGGUAUUUUUGGUUTT against Vopp1 sits?
rule not met

Strictly below 1: is that where z-score of GGCUGGACAGGAUUAUCCATT against Tmem185b sits?
rule met

Strictly below 1: is that where z-score of GCGCGUCAUCUUCUGACUUTT against Mmgt2 sits?
rule not met

Strictly below 1: is that where z-score of GCUCAAUGUGACAGUGGUGTT against Elane sits?
rule met

Strictly below 1: is that where z-score of GCUGUGGAGAAGUGCUACUTT against Lce1b sits?
rule met

Strictly below 1: is that where z-score of GCAGAUAAGAGUUCAAAUCTT against Oxa1l sits?
rule met

Strictly below 1: is that where z-score of GCCAAGGUUAUCAUGAAUGTT against F13a1 sits?
rule met

Strictly below 1: is that where z-score of GGAUCUUGAGUUGGAGUCCTT against Nupr1l sits?
rule met

Strictly below 1: is that where z-score of CGAAAACAGUACGAUGCUUTT against Dnajb11 sits?
rule not met

Strictly below 1: is that where z-score of GGCGCAUUACCAGAGCUUCTT against Tnpo2 sits?
rule met

Strictly below 1: is that where z-score of CCAGACUACGGUGCUAAGATT against Defb21 sits?
rule not met

Strictly below 1: is that where z-score of GCAAAACUGUGUCAGUAUCTT against Slco5a1 sits?
rule met

Strictly below 1: is that where z-score of GGAGGAUGAUGAGGAGGAUTT against Ppp1r1b sits?
rule not met

Strictly below 1: is that where z-score of GGUGACAGUUGUUCACAAATT against 4933405O20Rik sits?
rule met

Strictly below 1: is that where z-score of GGCCAGGAAAAAAUCUGCATT against Neu1 sits?
rule met

Strictly below 1: is that where z-score of GGUCUUCAUGGUCAAAGUGTT against Fzd10 sits?
rule not met

Strictly below 1: is that where z-score of GCUUCCUCUUAUCAUAUAATT against Rgs13 sits?
rule met

Strictly below 1: is that where z-score of GGAUGAGUUAAGUUUCUCATT against Sh3d19 sits?
rule met

Strictly below 1: is that where z-score of GGAAGAGAUGAAGAAAAUGTT against Cetn1 sits?
rule met

Strictly below 1: is that where z-score of GCUUGAAGUCUCUUGCUGGTT against Nhlrc2 sits?
rule not met

Strictly below 1: is that where z-score of GGGCAGCAAAGAAUUAACUTT against Ptpmt1 sits?
rule met

Strictly below 1: is that where z-score of GGAUGCAAUCGACAUGGAGTT against Atp5pb sits?
rule not met

Strictly below 1: is that where z-score of GGAGAGCUGGAACAAUAGCTT against Bcl2l2 sits?
rule not met

Strictly below 1: is that where z-score of CCAUCUUCAGCAGUGGAAATT against Rph3al sits?
rule met

Strictly below 1: is that where z-score of GGUGUCUGAGUAAUUCUGGTT against Zscan5b sits?
rule met

Strictly below 1: is that where z-score of GGGCAUUUCUUCAGCUAAUTT against Tfec sits?
rule met

Strictly below 1: is that where z-score of GGAGAUGCUCAUUUUGAUUTT against Mmp8 sits?
rule not met

Strictly below 1: is that where z-score of CCUUAUUUAGCUAAGCAGATT against Ran sits?
rule met

Strictly below 1: is that where z-score of GGCACUUCAAGGAGUUUUUTT against Lig4 sits?
rule not met

Strictly below 1: is that where z-score of GGUGUACCAGCAUAGCUGUTT against Hps5 sits?
rule not met

Strictly below 1: is that where z-score of GGAAUCUGCUGAGGUUUAUTT against Cidea sits?
rule not met

Strictly below 1: is that where z-score of GGUGCAUGCACUGAAGAAGTT against Mpv17 sits?
rule not met

Strictly below 1: is that where z-score of GUACUAGCUAAUUGGGCCATT against Speer4b sits?
rule met

Strictly below 1: is that where z-score of GGCAGAUUACUCUGAAUGATT against Prdx4 sits?
rule met

Strictly below 1: is that where z-score of GGAGUAUGCUGUCAAAAUCTT against Mknk1 sits?
rule met
